All figures here come from ChEMBL document CHEMBL5346933.

Assay: Cytotoxicity against human MRC5 cells assessed as reduction in cell viability incubated for 24 hrs by MTT assay
Assay type: toxicity, cell-based
quantity: IC50 at 24 h (µg/mL)
Field: numeric (µg/mL). Do not append units.

Check out these entries, answers already filled in.
{"compound": "O=C(NCC1CCN(CCC(Oc2ccc(C(F)(F)F)cc2)c2ccccc2)CC1)Nc1cccc(Cl)c1 (racemic)", "quantity": "IC50 at 24 h", "unit-abbreviation": "µg/mL", "reported-value": 3.12}
{"compound": "O=C(Nc1cccc(Cl)c1)N[C@H]1CCN(CCC(Oc2ccc(C(F)(F)F)cc2)c2ccccc2)C1 (stereo partly specified)", "quantity": "IC50 at 24 h", "unit-abbreviation": "µg/mL", "reported-value": 3.12}
{"compound": "O=C(NCC1CCN(CCC(Oc2ccc(Cl)cc2)c2ccccc2)CC1)Nc1cccc(Cl)c1 (racemic)", "quantity": "IC50 at 24 h", "unit-abbreviation": "µg/mL", "reported-value": 3.12}

Using known records, supply IC50 at 24 h for O=C(Nc1cccc(Cl)c1)N[C@@H]1CCN(CCC(Oc2ccc(C(F)(F)F)cc2)c2ccccc2)C1 (stereo partly specified)
3.12

Output IC50 at 24 h of O=C(Nc1cccc(Cl)c1)NC1CCN(CCC(Oc2cccc(C(F)(F)F)c2)c2ccccc2)CC1 (racemic)
12.5

Look up IC50 at 24 h of O=C(Nc1cccc(Cl)c1)NC1CCN(CCC(Oc2ccc(Cl)cc2)c2ccccc2)CC1 (racemic) and report it.
6.25

Give recorded IC50 at 24 h. O=C(Nc1cccc(Cl)c1)NC1CCN(CCC(Oc2cccc(Cl)c2)c2ccccc2)CC1 (racemic)
6.25
